Test system: M. marinum in BV2 microglial cells
Format: cell-based, Mycobacterium marinum
MEASUREMENT NAME: Intracellular infection assays: BV2 / M. marinum
Provide a numeric answer; units are not to be included.

The value of Intracellular infection assays: BV2 / M. marinum measured for the compound O=C(Cc1ccc(F)cc1)Nc1nc(-c2ccccn2)cs1 [GSK1570606A] turned out to be 1.05

The value of Intracellular infection assays: BV2 / M. marinum measured for the compound CCc1ccc(C2CC(C(F)(F)F)n3ncc(C(=O)NCc4cccs4)c3N2)cc1 (centres unmarked) [GSK1589671A] turned out to be 1.74

The value of Intracellular infection assays: BV2 / M. marinum measured for the compound O=C(c1cnn(C(=O)c2ccco2)c1)c1cc(F)ccc1O [GSK1310678A] turned out to be 1.17

The value of Intracellular infection assays: BV2 / M. marinum measured for the compound Fc1ccc2nc(Nc3nc(-c4ccccn4)cs3)sc2c1 [GSK735816A] turned out to be 1.37

The value of Intracellular infection assays: BV2 / M. marinum measured for the compound O=C(NCc1ccccc1F)N1CCN(Cc2ccc(Br)s2)CC1 [GSK1758774A] turned out to be 1.05

---

Provide the reported A. castellanii / M. marinum normalised growth, control=1.00, mean of each item.
Test system: M. marinum in A. castellanii
Assay type: cell-based, Mycobacterium marinum
Conditions: 10 µM
Provide a numeric answer; units are not to be included.

The value of A. castellanii / M. marinum normalised growth, control=1.00, mean measured for the molecule Br.CCc1ccccc1OCCCON1C(=N)N=C(N)NC1(C)C [BRL-10143SA] turned out to be 2.62

The value of A. castellanii / M. marinum normalised growth, control=1.00, mean measured for the molecule N=C(Nc1nc(-c2ccccn2)cc2ccccc12)c1cccc(Cl)c1 [GSK381407A] turned out to be 1.06

The value of A. castellanii / M. marinum normalised growth, control=1.00, mean measured for the molecule COc1cc(CN2CCC3(C=Cc4ccccc43)CC2)cc2c1OCO2 turned out to be 1.02

The value of A. castellanii / M. marinum normalised growth, control=1.00, mean measured for the molecule Cc1occc1C(=O)Nc1nc(-c2ccccn2)nc2ccsc12 [GSK237561A] turned out to be 1.57

The value of A. castellanii / M. marinum normalised growth, control=1.00, mean measured for the molecule COc1cc(C(F)(F)F)nc2ccc(C)c(N)c12 [GSK345724A] turned out to be 1.16

---

Test system: M. marinum in A. castellanii
Format: cell-based, Mycobacterium marinum
MEASUREMENT NAME: Intracellular infection assays: A. castellanii / M. marinum
Provide a numeric answer; units are not to be included.

Summary: COc1ccc(-c2ccc(Nc3cccc(S(=O)(=O)CCNCCc4cccs4)c3)nc2)cn1 [GSK1826089A] , M. marinum in A. castellanii, Intracellular infection assays: A. castellanii / M. marinum = 1.17

Summary: CC(C)(C)C(=O)CC1(O)Oc2ccccc2N=C1C=C(O)C(C)(C)C (stereo not drawn) [GSK262906A] , M. marinum in A. castellanii, Intracellular infection assays: A. castellanii / M. marinum = 1.04

Summary: COc1ccc(CC(=O)Nc2c(-c3cccs3)nc3cc(C)ccn23)cc1 [GSK1857145A] , M. marinum in A. castellanii, Intracellular infection assays: A. castellanii / M. marinum = 1.19

Summary: CCc1c(C)nc(-n2nc(C)cc2NC(=O)c2ccccc2SC)[nH]c1=O [GSK1783710A] , M. marinum in A. castellanii, Intracellular infection assays: A. castellanii / M. marinum = 1.00

Summary: O=C(CCSc1ccc(Cl)cc1)Nc1nc(-c2ccccn2)cs1 [GSK920703A] , M. marinum in A. castellanii, Intracellular infection assays: A. castellanii / M. marinum = 1.34

Summary: O=C(Nc1nc(-c2ccccn2)cs1)c1cncn1-c1ccccc1 [GSK1691553A] , M. marinum in A. castellanii, Intracellular infection assays: A. castellanii / M. marinum = 1.03

Summary: NC(=O)c1cc(-c2ccsc2)ccc1OCCOc1ccccc1 [GSK1365028A] , M. marinum in A. castellanii, Intracellular infection assays: A. castellanii / M. marinum = 1.14

Summary: COc1ccc2nc(C)cc(OCC(=O)Nc3ccccc3OC)c2c1 [GSK358607A] , M. marinum in A. castellanii, Intracellular infection assays: A. castellanii / M. marinum = 0.55

Summary: COc1cc(Cc2cnc(N)nc2N)c2cnccc2c1N(C)C [GW360240X] , M. marinum in A. castellanii, Intracellular infection assays: A. castellanii / M. marinum = 1.10

Summary: O=C(Nc1nnc(-c2ccc(Cl)cc2)o1)c1cccc(C(F)(F)F)c1 [GSK130506A] , M. marinum in A. castellanii, Intracellular infection assays: A. castellanii / M. marinum = 1.05

Summary: CCOc1ccc(OCc2ccc(C(=O)NNC(=O)c3ccc([N+](=O)[O-])o3)cc2)cc1 [GSK426032A] , M. marinum in A. castellanii, Intracellular infection assays: A. castellanii / M. marinum = 0.94

Summary: CCc1nc2ccccc2n1CC(O)COc1cc(C)ccc1Cl (stereo not drawn) [GSK889423A] , M. marinum in A. castellanii, Intracellular infection assays: A. castellanii / M. marinum = 1.18

Summary: COc1ccc2nc(C)cc(OCC(=O)NCc3ccccc3)c2c1 [GSK463114A] , M. marinum in A. castellanii, Intracellular infection assays: A. castellanii / M. marinum = 1.10

Summary: O=C(Cc1ccc(F)cc1)Nc1nc(-c2ccccn2)cs1 [GSK1570606A] , M. marinum in A. castellanii, Intracellular infection assays: A. castellanii / M. marinum = 1.21

Summary: Cc1cc(NCCc2ccccc2)nc(/N=C(\N)Nc2ccc(Cl)cc2)n1 [CCI7967] , M. marinum in A. castellanii, Intracellular infection assays: A. castellanii / M. marinum = 1.16

Summary: c1ccc(-c2nnc(Sc3ccnc(N4CCN(c5ccncc5)CC4)n3)n2CCCN2CCOCC2)nc1 [GSK547543A] , M. marinum in A. castellanii, Intracellular infection assays: A. castellanii / M. marinum = 0.99

Summary: N=C(N)c1ccc(CCN2CCC(c3nc(COCC(F)(F)F)c(-c4ccc(F)cc4)o3)CC2)cc1.O=C(O)C(F)(F)F.O=C(O)C(F)(F)F [GI247341A] , M. marinum in A. castellanii, Intracellular infection assays: A. castellanii / M. marinum = 1.18

Summary: COc1cc(Nc2ccccc2)ccc1NS(=O)(=O)c1c(C)noc1C [GSK270670A] , M. marinum in A. castellanii, Intracellular infection assays: A. castellanii / M. marinum = 1.11

---

Test system: M. marinum in BV2 microglial cells
Type: cell-based, Mycobacterium marinum
Provide the reported Intracellular infection assays: BV2 / M. marinum of each item.
Provide a numeric answer; units are not to be included.

The value of Intracellular infection assays: BV2 / M. marinum measured for the molecule Cc1cc(OCC(=O)NCc2ccccc2)c2cc(Br)ccc2n1 [GSK124576A] turned out to be 1.05

The value of Intracellular infection assays: BV2 / M. marinum measured for the molecule O=C(c1[nH]nc2c1CCCC2)N1CCN(Cc2ccc3c(c2)OCO3)CC1 turned out to be 1.28

The value of Intracellular infection assays: BV2 / M. marinum measured for the molecule Cc1ccc(SCCNC(=O)c2c(-c3ccccc3)noc2C)cc1 [GSK1863309A] turned out to be 1.12

The value of Intracellular infection assays: BV2 / M. marinum measured for the molecule O=C(CCC1CCCCC1)Nc1cccc(-c2nnc(-c3ccco3)o2)c1 [GSK937213A] turned out to be 1.14

The value of Intracellular infection assays: BV2 / M. marinum measured for the molecule COc1ccc2cc(C(=O)Nc3ccc(C4CCN(C)CC4)cc3)sc2c1 [GSK1635139A] turned out to be 1.15

---

Tested on: M. marinum in A. castellanii
Type: cell-based, Mycobacterium marinum
Settings: 10 µM
# binning rule on A. castellanii / M. marinum normalised growth, control=1.00, mean: bucket 1 (below 0.7), bucket 2 (0.7 to below 1), bucket 3 (1 or more)

Q: Could you tell me which band COc1ccc2nc(C)cc(OCC(=O)Nc3cc(C)cc(C)c3)c2c1 [GSK749336A] belongs to?
Ans: bucket 1

Q: Could you tell me which band O=C(c1cc2c(s1)CCC2)N1CCN(Cc2ccc3c(c2)OCO3)CC1 [GSK1731114A] belongs to?
Ans: bucket 2

Q: Could you tell me which band O=C(NC12CC3CC(CC(C3)C1)C2)c1cc2cc(Cl)ccc2[nH]1 [GW623128X] belongs to?
Ans: bucket 1

Q: Could you tell me which band Cc1nc2ccccn2c1C(=O)NCc1cccs1 [GSK892651A] belongs to?
Ans: bucket 1

Q: Could you tell me which band CCCCS(=O)(=O)Nc1ccc2cnn(C)c2c1 [GSK3011724A] belongs to?
Ans: bucket 1

Q: Could you tell me which band Cc1ccc(C(=O)Nc2nc(-c3ccccn3)cs2)s1 [GSK1372568A] belongs to?
Ans: bucket 3

Q: Could you tell me which band CCn1c(=O)c(=O)[nH]c2cc(C(=O)Nc3ccccc3Nc3ccc(OC)cc3)ccc21 [GSK1385423A] belongs to?
Ans: bucket 3

Q: Could you tell me which band Cc1ccc2[nH]c(C3CCCNC3)c(-c3ccncc3)c2c1 (centres unmarked) [GSK1905227A] belongs to?
Ans: bucket 3

Q: Could you tell me which band Cc1nc2ccccn2c1C(=O)NCc1ccc2c(c1)OCO2 [GSK498315A] belongs to?
Ans: bucket 1

Q: Could you tell me which band COc1cc2ccccc2cc1C(=O)NCc1cccc(-c2ccccc2OC)c1 [GSK695914A] belongs to?
Ans: bucket 1

Q: Could you tell me which band C=CCNc1nc(SC)nc2ccccc12 [GSK353071A] belongs to?
Ans: bucket 2

Q: Could you tell me which band O=C(NCc1ccc2c(c1)OCO2)c1c(C(F)(F)F)nc2ccccn12 [GSK1829671A] belongs to?
Ans: bucket 1

Q: Could you tell me which band COc1ccccc1OCCCCn1c(C2CC2)nc2ccccc21 [GSK994258A] belongs to?
Ans: bucket 3

Q: Could you tell me which band COc1ccc(-c2nc(-c3cccc(NC(=O)Cc4ccc(F)cc4)c3)no2)cc1OC [GSK2043267A] belongs to?
Ans: bucket 2

Q: Could you tell me which band N#Cc1ccc2c(c1)CCN(CCCSc1ccnc3cc(C(F)(F)F)ccc13)CC2 [GSK254610A] belongs to?
Ans: bucket 2

Q: Could you tell me which band CN1CCN(c2cc(-c3ccncc3)nc(-c3ccccc3)n2)CC1 [GSK275984A] belongs to?
Ans: bucket 3

Q: Could you tell me which band Nc1cccnc1Nc1ccc(Cl)cc1 [GR135486X] belongs to?
Ans: bucket 2
